Test system: Saccharomyces cerevisiae;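 also: PSI is a weighted mean of sequencing reads over stability bins, variants kept only with over 10 reads, mCherry proximal and sfGFP distal, peptide attached via GGGS linker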
Test: protein stability index of tFT-peptide fusion (C-terminal peptide) (PSI (0-1 scale)); higher = more stable (slower turnover)
Conditions: genetic background: das1 deletion; temperature: 37 C
Note to self: class labels come from recorded protein stability index, ranges listed here: bin 1 (below 0.5), bin 2 (0.5 to below 0.7), bin 3 (0.7 or more)

GFGDKVPWRWVI | bin 3
GGRSLYAILCAV | bin 1
CFVSFLHLLYFS | bin 1
PRQPSKSNASNR | bin 3
TLPIWLRVLIFG | bin 1
WLLSFLRFLVLR | bin 1
PLLLFFFPRLLF | bin 2
LLCLLLVPQPHR | bin 2
YYQVSQKIQRKQ | bin 3
VDVWRWRGLRVG | bin 3

Please classify: `CYKYTYVKNNMI` bin 3

Next record, please: `RGPAYATCHLLC` bin 3

Next record, please: `ILRAGITYVYAV` bin 2

Next record, please: `PVLIFTWVIVCH` bin 1

Next record, please: `GPGTWLFCFVRF` bin 2

Next record, please: `LCCTLFFCYSYH` bin 2

Next record, please: `KFWVVLIEIKYH` bin 1

Next record, please: `SFFCFFLSFFYL` bin 2

Next record, please: `IEVACLLTAFCD` bin 1

Next record, please: `FMANRYICQKTL` bin 3

Next record, please: `VSLHVFVFLLAS` bin 1

Next record, please: `SSLRATLLIRAV` bin 2

Next record, please: `HPRPRPPPLPPP` bin 2

Next record, please: `VSWWRGVYVVLF` bin 2

Next record, please: `SVFWCFHVLFWS` bin 2

Next record, please: `ISAVLFFLYLSF` bin 1

Next record, please: `RSFSKRSFMFLC` bin 3

Next record, please: `KNVFLIRGRKNC` bin 3

Next record, please: `FLFQYLCIISSL` bin 1
